tested on: SIRPα signalling induced by Raji cells; test: Assay B: SIRPα signalling assay using Raji cells; type: cell-based; details: Homo sapiens; compounds of the invention; Raji cells 48 h, Jurkat PathHunter SIRPαV1 reporter cells 5 h; read-out: Inhibition of SIRPα signalling induced by Raji cells: IC50

| SMILES REPRESENTATION | IC50 |
| --- | --- |
| Cn1cnnc1C1(F)CCN(c2c(C#N)cc(C3CC3)nc2-c2ccc(F)nc2)CC1 | 87 nM |
| Cn1cnnc1C1(F)CCN(c2c(C#N)ccnc2-c2cnc3nn(C(C)(C)C)nc3c2)CC1 | 102 nM |
| Cn1cnnc1C1(F)CCN(c2c(-c3ccc(F)nc3)ncc(Cl)c2C#N)CC1 | 247 nM |
| Cn1cnnc1C1(F)CCN(c2c(C#N)cc(C(F)(F)F)nc2-c2cnc3nn(C(C)(C)C)nc3c2)CC1 | 67 nM |
| Cn1cnnc1C1(F)CCN(c2c(C#N)cc(C(C)(F)F)nc2-c2ccc(F)nc2)CC1 | 37 nM |
| Cn1cnnc1C1(F)CCN(c2c(C#N)cc(Cl)nc2-c2ccc(F)nc2)CC1 | 95 nM |
| Cn1cnnc1C1(F)CCN(c2c(C#N)cc(C(F)(F)F)nc2-c2cnc3nn(C(C)(C)C)cc3c2)CC1 | 9 nM |
| Cn1cnnc1C1(F)CCN(c2c(C#N)cc(C(C)(F)F)nc2-c2cnc3nn(C(C)(C)C)cc3c2)CC1 | 4 nM |

* * *

test system: SIRPα signalling induced by Raji cells; assay: Assay B: SIRPα signalling assay using Raji cells; type: cell-based; settings: Homo sapiens; compounds of the invention; Raji cells 48 h, Jurkat PathHunter SIRPαV1 reporter cells 5 h; read-out: Inhibition of SIRPα signalling induced by Raji cells: IC50
pIC50: −log10 of the molar value.
In this section, each of the molecules is paired with its reported pIC50.

| MOLECULE | pIC50 |
| --- | --- |
| Cn1cnnc1C1(F)CCN(c2c(C#N)cc(Cl)nc2-c2cnc3nn(C(C)(C)C)cc3c2)CC1 [Example 36] | 8.05 |
| Cn1cnnc1C1(F)CCN(c2c(C#N)ccnc2-c2cnc(F)cc2Cl)CC1 [Example 22] | 6.36 |
| Cn1cnnc1C1(F)CCN(c2c(-c3ccc(F)nc3)ncc(C(F)(F)F)c2C#N)CC1 [Example 40] | 6.59 |
| Cn1cnnc1C1(F)CCN(c2c(C#N)cc(C(F)F)nc2-c2ccc(F)nc2)CC1 [Example 35] | 6.81 |
| Cc1cnc(-c2ccc(F)nc2)c(N2CCC(F)(c3nncn3C)CC2)c1C#N [Example 41] | 7.15 |
| Cn1cnnc1C1(F)CCN(c2c(-c3cnc4nn(C(C)(C)C)cc4c3)ncc(Cl)c2C#N)CC1 [Example 38] | 7.68 |
| Cn1cnnc1C1(F)CCN(c2c(C#N)cc(C(C)(F)F)nc2-c2cnc3nn(C(C)(C)C)c(F)c3c2)CC1 [Example 33] | 7.89 |
| Cc1cc(F)ncc1-c1nccc(C#N)c1N1CCC(F)(c2nncn2C)CC1 [Example 21] | 6.73 |

* * *

// reported Papp A→B at 2 h for each item listed
test: Assay C: permeability in CACO-2 cells; type: in vitro ADME; conditions: human, Caco-2, pH 7.2

| COMPOUND | Papp A→B at 2 h, ×10⁻⁶ cm/s |
| --- | --- |
| Nc1ncc(C2CCN(c3ncccc3-c3ccc(F)nc3)CC2)s1 | 73 |
| Nc1nnc(C2CCN(c3ncccc3-c3ccc(F)nc3)CC2)s1 | 68 |
| Cn1cnnc1C1CCN(c2ncccc2-c2ccc(F)nc2)CC1 [SEN177, reference compound] | 11 |
| Cn1cnnc1C1CCN(c2ncccc2-c2cccnc2)CC1 [SEN180, reference compound] | 4.2 |

The reported measurements were obtained from patent US20250059166A1.
